tested on: HeLa Kyoto; assay: solubility in G1/S (NP-40 vs SDS abundance) (log2 ratio); higher = more soluble; settings: cell cycle stage: G1/S;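 also: HeLa Kyoto cells arrested at G1/S by double thymidine block, proteins quantified by TMT10plex mass spectrometry in mild NP-40 versus SDS extracts, three biological replicates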
Assign solubility in G1/S (log2) to each entry below.
# answer = number (no unit)

Query string: Recorded solubility in G1/S (log2) for MADQPKPISPLKNLLAGGFGGVCLVFVGHPLDTVKVRLQTQPPSLPGQPPMYSGTFDCFRKTLFREGITGLYRGMAAPIIGVTPMFAVCFFGFGLGKKLQQKHPEDVLSYPQLFAAGMLSGVFTTGIMTPGERIKCLLQIQASSGESKYTGTLDCAKKLYQEFGIRGIYKGTVLTLMRDVPASGMYFMTYEWLKNIFTPEGKRVSELSAPRILVAGGIAGIFNWAVAIPPDVLKSRFQTAPPGKYPNGFRDVLRELIRDEGVTSLYKGFNAVMIRAFPANAACFLGFEVAMKFLNWATPNL [SLC25A20] , please?
Result string: -0.0167

Query string: Recorded solubility in G1/S (log2) for MATRSPGVVISDDEPGYDLDLFCIPNHYAEDLERVFIPHGLIMDRTERLARDVMKEMGGHHIVALCVLKGGYKFFADLLDYIKALNRNSDRSIPMTVDFIRLKSYCNDQSTGDIKVIGGDDLSTLTGKNVLIVEDIIDTGKTMQTLLSLVRQYNPKMVKVASLLVKRTPRSVGYKPDFVGFEIPDKFVVGYALDYNEYFRDLNHVCVISETGKAKYKA [HPRT1] , please?
Result string: 0.209

Query string: Recorded solubility in G1/S (log2) for MSDTAVADTRRLNSKPQDLTDAYGPPSNFLEIDIFNPQTVGVGRARFTTYEVRMRTNLPIFKLKESCVRRRYSDFEWLKNELERDSKIVVPPLPGKALKRQLPFRGDEGIFEESFIEERRQGLEQFINKIAGHPLAQNERCLHMFLQEEAIDRNYVPGKVRQ [SNX12] , please?
Result string: 0.348

Query string: Recorded solubility in G1/S (log2) for MEKRLQEAQLYKEEGNQRYREGKYRDAVSRYHRALLQLRGLDPSLPSPLPNLGPQGPALTPEQENILHTTQTDCYNNLAACLLQMEPVNYERVREYSQKVLERQPDNAKALYRAGVAFFHLQDYDQARHYLLAAVNRQPKDANVRRYLQLTQSELSSYHRKEKQLYLGMFG [TTC9C] , please?
Result string: 0.247

Query string: Recorded solubility in G1/S (log2) for MLLGLAAMELKVWVDGIQRVVCGVSEQTTCQEVVIALAQAIGQTGRFVLVQRLREKERQLLPQECPVGAQATCGQFASDVQFVLRRTGPSLAGRPSSDSCPPPERCLIRASLPVKPRAALGCEPRKTLTPEPAPSLSRPGPAAPVTPTPGCCTDLRGLELRVQRNAEELGHEAFWEQELRREQAREREGQARLQALSAATAEHAARLQALDAQARALEAELQLAAEAPGPPSPMASATERLHQDLAVQERQSAEVQGSLALVSRALEAAERALQAQAQELEELNRELRQCNLQQFIQQTGAALPPPPRPDRGPPGTQGPLPPAREESLLGAPSESHAGAQPRPRGGPHDAELLEVAAAPAPEWCPLAAQPQAL [RASSF7] , please?
Result string: 0.299

Query string: Recorded solubility in G1/S (log2) for MSPARRCRGMRAAVAASVGLSEGPAGSRSGRLFRPPSPAPAAPGARLLRLPGSGAVQAASPERAGWTEALRAAVAELRAGAVVAVPTDTLYGLACAASCSAALRAVYRLKGRSEAKPLAVCLGRVADVYRYCRVRVPEGLLKDLLPGPVTLVMERSEELNKDLNPFTPLVGIRIPDHAFMQDLAQMFEGPLALTSANLSSQASSLNVEEFQDLWPQLSLVIDGGQIGDGQSPECRLGSTVVDLSVPGKFGIIRPGCALESTTAILQQKYGLLPSHASYL [YRDC] , please?
Result string: 0.378

Query string: Recorded solubility in G1/S (log2) for MAAAEAGGDDARCVRLSAERAQALLADVDTLLFDCDGVLWRGETAVPGAPEALRALRARGKRLGFITNNSSKTRAAYAEKLRRLGFGGPAGPGASLEVFGTAYCTALYLRQRLAGAPAPKAYVLGSPALAAELEAVGVASVGVGPEPLQGEGPGDWLHAPLEPDVRAVVVGFDPHFSYMKLTKALRYLQQPGCLLVGTNMDNRLPLENGRFIAGTGCLVRAVEMAAQRQADIIGKPSRFIFDCVSQEYGINPERTVMVGDRLDTDILLGATCGLKTILTLTGVSTLGDVKNNQESDCVSKKKMVPDFYVDSIADLLPALQG [PGP] , please?
Result string: 0.536

Query string: Recorded solubility in G1/S (log2) for MVFYFTSSSVNSSAYTIYMGKDKYENEDLIKHGWPEDIWFHVDKLSSAHVYLRLHKGENIEDIPKEVLMDCAHLVKANSIQGCKMNNVNVVYTPWSNLKKTADMDVGQIGFHRQKDVKIVTVEKKVNEILNRLEKTKVERFPDLAAEKECRDREERNEKKAQIQEMKKREKEEMKKKREMDELRSYSSLMKVENMSSNQDGNDSDEFM [CCDC25] , please?
Result string: 0.0307

Query string: Recorded solubility in G1/S (log2) for MADSELQLVEQRIRSFPDFPTPGVVFRDISPVLKDPASFRAAIGLLARHLKATHGGRIDYIAGLDSRGFLFGPSLAQELGLGCVLIRKRGKLPGPTLWASYSLEYGKAELEIQKDALEPGQRVVVVDDLLATGGTMNAACELLGRLQAEVLECVSLVELTSLKGREKLAPVPFFSLLQYE [APRT] , please?
Result string: 0.361

Query string: Recorded solubility in G1/S (log2) for MAAVDSFYLLYREIARSCNCYMEALALVGAWYTARKSITVICDFYSLIRLHFIPRLGSRADLIKQYGRWAVVSGATDGIGKAYAEELASRGLNIILISRNEEKLQVVAKDIADTYKVETDIIVADFSSGREIYLPIREALKDKDVGILVNNVGVFYPYPQYFTQLSEDKLWDIINVNIAAASLMVHVVLPGMVERKKGAIVTISSGSCCKPTPQLAAFSASKAYLDHFSRALQYEYASKGIFVQSLIPFYVATSMTAPSNFLHRCSWLVPSPKVYAHHAVSTLGISKRTTGYWSHSIQFLFAQYMPEWLWVWGANILNRSLRKEALSCTA [HSDL1] , please?
Result string: -0.127

Query string: Recorded solubility in G1/S (log2) for MSFRGGGRGGFNRGGGGGGFNRGGSSNHFRGGGGGGGGGNFRGGGRGGFGRGGGRGGFNKGQDQGPPERVVLLGEFLHPCEDDIVCKCTTDENKVPYFNAPVYLENKEQIGKVDEIFGQLRDFYFSVKLSENMKASSFKKLQKFYIDPYKLLPLQRFLPRPPGEKGPPRGGGRGGRGGGRGGGGRGGGRGGGFRGGRGGGGGGFRGGRGGGFRGRGH [GAR1] , please?
Result string: -1.36
